B1: library; numbered along this chain (parent)
chain: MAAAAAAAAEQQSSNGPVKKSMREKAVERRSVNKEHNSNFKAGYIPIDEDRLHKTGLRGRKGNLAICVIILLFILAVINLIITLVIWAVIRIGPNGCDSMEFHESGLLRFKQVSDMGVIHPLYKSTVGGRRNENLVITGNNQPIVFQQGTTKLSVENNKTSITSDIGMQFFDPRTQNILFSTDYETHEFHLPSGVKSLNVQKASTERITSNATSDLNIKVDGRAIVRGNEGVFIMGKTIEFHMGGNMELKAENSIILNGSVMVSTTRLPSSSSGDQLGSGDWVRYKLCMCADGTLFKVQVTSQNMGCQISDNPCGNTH

- Variants of: B1
- METHOD: SGCB cell-surface expression functional score (HA stain, bin4 vs bin1, normalised to synonymous) (log10 ratio); higher = more cell-surface SGCB (functional)
Class condition met: SGCB cell-surface expression functional score (log10) at least 0.1. Class condition not met: SGCB cell-surface expression functional score (log10) below 0.1.

Does the reported SGCB cell-surface expression functional score (log10) for `P143F` fall at or above the 0.1 mark? condition not met

Does `M1A` have a reported SGCB cell-surface expression functional score (log10) of at least 0.1? condition met

Is SGCB cell-surface expression functional score (log10) for `K219G` at or above 0.1? condition not met

Check the entry `K19Y` : does SGCB cell-surface expression functional score (log10) equal or exceed 0.1? condition met

// inclusive: SGCB cell-surface expression functional score (log10) at least 0.1? input: `S271N` condition met

Could you tell me if the measured SGCB cell-surface expression functional score (log10) of `E230K` reaches 0.1 or more? condition met

Form field: SGCB cell-surface expression functional score (log10) at least 0.1? Entry: `K159Y` condition not met

Hello, I need to know if `V145P` has measured SGCB cell-surface expression functional score (log10) not below 0.1. Thanks! condition not met

Given the entry `R91H` , answer whether its SGCB cell-surface expression functional score (log10) meets or surpasses 0.1. condition not met

Would you say `A251Y` shows SGCB cell-surface expression functional score (log10) at minimum 0.1? condition not met

Does `T205R` have a reported SGCB cell-surface expression functional score (log10) of at least 0.1? condition not met

In plain terms: is recorded SGCB cell-surface expression functional score (log10) at least 0.1 for `L57S` ? condition met

Check this variant for SGCB cell-surface expression functional score (log10) at or above 0.1: `H120I` condition met

Assess whether reported SGCB cell-surface expression functional score (log10) for `M1Y` sits at 0.1 or higher. condition not met

Quick check: does `F110Q` have SGCB cell-surface expression functional score (log10) greater than or equal to 0.1? condition not met

SGCB cell-surface expression functional score (log10) >= 0.1 for `I309V` ? condition not met

Evaluate `E35H` : SGCB cell-surface expression functional score (log10) at minimum 0.1? condition met

Given `I74V` , state whether its SGCB cell-surface expression functional score (log10) is at least 0.1. condition not met

Check the entry `Y184K` : does SGCB cell-surface expression functional score (log10) equal or exceed 0.1? condition not met

Hi, just wondering whether `K237M` shows SGCB cell-surface expression functional score (log10) of 0.1 or higher. condition met

In plain terms: is recorded SGCB cell-surface expression functional score (log10) at least 0.1 for `I166K` ? condition not met

Source listed as the supplement of paper PMC10266784.
